PROCEDURE_SUMMARY: Kinetic solubility
Type: physicochemical

{"COMPOUND": "FC(F)(F)c1cc2c(N[C@H]3c4ccccc4CC[C@@H]3N3C4CCC3COC4)ncnc2[nH]1", "solubility kinetic (µM)": 1}
{"COMPOUND": "O=C1COCCN1[C@H]1CCc2ccccc2[C@@H]1Nc1ncnc2[nH]c(C(F)(F)F)cc12 (single isomer, unassigned)", "solubility kinetic (µM)": 3.02}
{"COMPOUND": "FC(F)(F)c1cc2c(N[C@@H]3c4ccccc4CC[C@H]3N3CCOCC3)ncnc2[nH]1 (racemic) [EP-0037821]", "solubility kinetic (µM)": 14.1}
{"COMPOUND": "COC1CCN([C@H]2CCc3ccccc3[C@@H]2Nc2ncnc3[nH]c(C(F)(F)F)cc23)CC1", "solubility kinetic (µM)": 134}
{"COMPOUND": "c1ccc2c(c1)CC[C@H](N1CCOCC1)[C@H]2Nc1ncnc2[nH]cnc12", "solubility kinetic (µM)": 164}
{"COMPOUND": "FC(F)(F)c1cc2c(N[C@H]3c4ccccc4CC[C@@H]3N3CC4(CCOCC4)C3)ncnc2[nH]1 (single isomer, unassigned)", "solubility kinetic (µM)": 153}
{"COMPOUND": "FC(F)(F)c1cc2c(N[C@H]3c4ccccc4CC[C@@H]3N3CCOCC3)ncnc2[nH]1 (single isomer, unassigned)", "solubility kinetic (µM)": 14.1}

These measurements were taken from patent US20240018146A1.
